System tested: NEK11 (human)
Experiment summary: KINOMEscan competition binding
Conditions: compound 10.0 µM
Rule for this label: Fulfilled means kinase still bound, per cent of control is less than 80%; Not fulfilled means kinase still bound, per cent of control is at least 80%.

Sample answers from the record:
O=C(NC1CC1)c1cccc(-c2ccc3c(NC(=O)C4CC4)n[nH]c3c2)c1: Not fulfilled
CCOc1cc2ncc(C#N)c(Nc3ccc(OCc4ccccn4)c(Cl)c3)c2cc1NC(=O)/C=C/CN(C)C: Fulfilled
CN(C)C/C=C/C(=O)Nc1cccc(Nc2ncc3c(n2)N(C)c2ccccc2C(=O)N3C)c1: Fulfilled
COc1cc(N2CCN(C)CC2)ccc1Nc1nc(N)c(C(=O)c2c(Cl)cccc2Cl)s1: Fulfilled
Cc1ccc(NC(=O)c2cccc(C(C)(C)C#N)c2)cc1Nc1ccc2ncn(C)c(=O)c2c1: Not fulfilled

State whether 80% exceeds kinase still bound, per cent of control recorded for O=C(NOC[C@H](O)CO)c1ccc(F)c(F)c1Nc1ccc(I)cc1F . Not fulfilled

State whether 80% exceeds kinase still bound, per cent of control recorded for N#Cc1c(NC(=O)c2cccc3ccccc23)sc2c1CCCC2 . Not fulfilled

State whether 80% exceeds kinase still bound, per cent of control recorded for Cc1cc([C@@H](C)Nc2ccccc2C(=O)O)c2nc(N3CCOCC3)cc(=O)n2c1 . Not fulfilled

---

# Lookup of reported kinase still bound, per cent of control keyed by entry
System tested: TYRO3 (human) (UniProt Q06418)
Sequence (Q06418 whole entry, looked up): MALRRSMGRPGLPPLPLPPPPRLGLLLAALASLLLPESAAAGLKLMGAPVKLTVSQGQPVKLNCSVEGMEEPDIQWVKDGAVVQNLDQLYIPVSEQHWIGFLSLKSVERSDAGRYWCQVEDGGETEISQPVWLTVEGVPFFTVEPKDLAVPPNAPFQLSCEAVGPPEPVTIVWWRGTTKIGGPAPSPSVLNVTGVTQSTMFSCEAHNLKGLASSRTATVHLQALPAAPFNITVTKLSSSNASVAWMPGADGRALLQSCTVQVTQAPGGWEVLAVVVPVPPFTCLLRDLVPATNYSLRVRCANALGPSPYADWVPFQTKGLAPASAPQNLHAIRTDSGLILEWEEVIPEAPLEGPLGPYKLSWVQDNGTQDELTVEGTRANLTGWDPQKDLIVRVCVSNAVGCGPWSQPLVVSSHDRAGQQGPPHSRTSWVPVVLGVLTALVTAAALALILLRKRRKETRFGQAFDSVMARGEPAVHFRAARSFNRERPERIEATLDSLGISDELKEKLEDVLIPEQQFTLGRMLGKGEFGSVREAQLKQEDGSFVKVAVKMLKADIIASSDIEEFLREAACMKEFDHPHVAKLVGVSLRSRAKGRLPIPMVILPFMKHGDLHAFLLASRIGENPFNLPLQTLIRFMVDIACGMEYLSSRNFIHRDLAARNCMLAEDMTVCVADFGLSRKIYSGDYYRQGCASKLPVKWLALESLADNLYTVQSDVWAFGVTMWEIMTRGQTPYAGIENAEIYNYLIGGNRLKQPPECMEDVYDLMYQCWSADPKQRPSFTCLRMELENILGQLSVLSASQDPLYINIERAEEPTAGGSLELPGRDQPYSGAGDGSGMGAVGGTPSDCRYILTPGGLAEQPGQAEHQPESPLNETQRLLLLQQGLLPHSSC
Experiment summary: KINOMEscan competition binding
Conditions: compound 10.0 µM
Reply numerically in %, unit not repeated.

Examples with answers:
CN(C)C/C=C/C(=O)Nc1cccc(Nc2ncc3c(n2)N(C)c2ccccc2C(=O)N3C)c1: 100
O=C1Nc2ccc(I)cc2/C1=C/c1cc(Br)c(O)c(Br)c1: 88
CCC(=O)N1CCN(c2ccc(-n3c(=O)ccc4cnc5ccc(-c6cnc7ccccc7c6)cc5c43)cc2C(F)(F)F)CC1: 31
O=C(O)c1ccc(Nc2ncc3c(n2)-c2ccc(Cl)cc2C(c2c(F)cccc2F)=NC3)cc1: 46
N#Cc1c(NC(=O)c2cccc3ccccc23)sc2c1CCCC2: 76

Please tell me: kinase still bound, per cent of control of CCN1CCN(Cc2ccc(Nc3ncc4c(n3)N(C)c3ccccc3C(=O)N4C)cc2C(F)(F)F)CC1 , system TYRO3 (human) (UniProt Q06418)? 92

Please tell me: kinase still bound, per cent of control of Nc1ccc(-c2ccc3ncc4ccc(=O)n(-c5cccc(C(F)(F)F)c5)c4c3c2)cn1 , system TYRO3 (human) (UniProt Q06418)? 100

Please tell me: kinase still bound, per cent of control of C=CC(=O)Nc1cccc(Oc2nc(Nc3ccc(N4CCN(C)CC4)cc3OC)ncc2Cl)c1 , system TYRO3 (human) (UniProt Q06418)? 100

Please tell me: kinase still bound, per cent of control of Cc1ccc2nc(NCCN)c3ncc(C)n3c2c1 , system TYRO3 (human) (UniProt Q06418)? 100

---

# Lookup of reported kinase still bound, per cent of control keyed by entry
System tested: UniProt:P06213
Sequence (P06213 whole entry, looked up): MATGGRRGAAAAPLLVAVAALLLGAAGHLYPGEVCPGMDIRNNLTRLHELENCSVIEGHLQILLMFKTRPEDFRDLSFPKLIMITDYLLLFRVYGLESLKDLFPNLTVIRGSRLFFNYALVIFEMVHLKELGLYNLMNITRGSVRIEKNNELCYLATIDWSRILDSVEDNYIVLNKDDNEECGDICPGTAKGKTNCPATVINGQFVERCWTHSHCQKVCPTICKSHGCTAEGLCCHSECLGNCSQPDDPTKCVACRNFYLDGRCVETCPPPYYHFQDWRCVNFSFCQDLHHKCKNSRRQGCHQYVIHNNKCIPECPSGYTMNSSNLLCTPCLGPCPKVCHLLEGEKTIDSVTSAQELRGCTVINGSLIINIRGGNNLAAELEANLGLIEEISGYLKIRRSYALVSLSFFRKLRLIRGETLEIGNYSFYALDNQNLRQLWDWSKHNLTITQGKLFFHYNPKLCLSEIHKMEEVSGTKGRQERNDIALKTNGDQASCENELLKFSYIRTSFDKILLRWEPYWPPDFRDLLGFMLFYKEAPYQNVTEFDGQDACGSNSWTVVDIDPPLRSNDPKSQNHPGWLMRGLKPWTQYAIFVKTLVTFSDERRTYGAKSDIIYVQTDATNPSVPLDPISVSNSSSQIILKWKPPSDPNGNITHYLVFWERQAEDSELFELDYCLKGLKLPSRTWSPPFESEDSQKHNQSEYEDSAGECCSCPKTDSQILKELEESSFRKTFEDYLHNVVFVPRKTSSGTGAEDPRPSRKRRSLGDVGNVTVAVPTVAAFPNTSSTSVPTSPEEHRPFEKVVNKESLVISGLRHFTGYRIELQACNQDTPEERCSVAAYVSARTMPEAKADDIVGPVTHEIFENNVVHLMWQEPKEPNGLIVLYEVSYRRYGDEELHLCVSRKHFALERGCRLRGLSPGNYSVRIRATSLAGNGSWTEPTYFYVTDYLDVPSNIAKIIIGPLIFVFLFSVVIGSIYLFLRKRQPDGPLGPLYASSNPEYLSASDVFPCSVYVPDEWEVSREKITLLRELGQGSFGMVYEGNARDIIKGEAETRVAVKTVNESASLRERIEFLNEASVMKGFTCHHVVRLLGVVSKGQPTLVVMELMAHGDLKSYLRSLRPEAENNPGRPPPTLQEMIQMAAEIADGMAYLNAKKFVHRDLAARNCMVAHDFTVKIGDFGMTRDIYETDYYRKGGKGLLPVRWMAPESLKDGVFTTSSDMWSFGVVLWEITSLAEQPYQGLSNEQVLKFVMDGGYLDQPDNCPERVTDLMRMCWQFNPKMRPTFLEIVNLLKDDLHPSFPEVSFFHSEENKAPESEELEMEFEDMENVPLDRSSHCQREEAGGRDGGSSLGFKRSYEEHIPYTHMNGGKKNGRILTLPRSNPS
Experiment summary: KINOMEscan competition binding
Conditions: compound 10.0 µM
Reply numerically in %, unit not repeated.

Examples with answers:
Cc1ccc2nc(NCCN)c3ncc(C)n3c2c1: 99
N#Cc1c(NC(=O)c2cccc3ccccc23)sc2c1CCCC2: 100

Any idea what its kinase still bound, per cent of control is? The compound is C=CC(=O)Nc1cc(NC(=O)c2ccc(C)c(NC(=O)c3ccno3)c2)cc(C(F)(F)F)c1 92

Any idea what its kinase still bound, per cent of control is? The compound is O=C(NC1CC1)c1cccc(-c2ccc3c(NC(=O)C4CC4)n[nH]c3c2)c1 78

Any idea what its kinase still bound, per cent of control is? The compound is Cn1c(=O)n(-c2ccc(C(C)(C)C#N)cc2)c2c3cc(-c4cnc5ccccc5c4)ccc3ncc21 100

---

System tested: UniProt:P53667
Sequence (P53667 whole entry, looked up): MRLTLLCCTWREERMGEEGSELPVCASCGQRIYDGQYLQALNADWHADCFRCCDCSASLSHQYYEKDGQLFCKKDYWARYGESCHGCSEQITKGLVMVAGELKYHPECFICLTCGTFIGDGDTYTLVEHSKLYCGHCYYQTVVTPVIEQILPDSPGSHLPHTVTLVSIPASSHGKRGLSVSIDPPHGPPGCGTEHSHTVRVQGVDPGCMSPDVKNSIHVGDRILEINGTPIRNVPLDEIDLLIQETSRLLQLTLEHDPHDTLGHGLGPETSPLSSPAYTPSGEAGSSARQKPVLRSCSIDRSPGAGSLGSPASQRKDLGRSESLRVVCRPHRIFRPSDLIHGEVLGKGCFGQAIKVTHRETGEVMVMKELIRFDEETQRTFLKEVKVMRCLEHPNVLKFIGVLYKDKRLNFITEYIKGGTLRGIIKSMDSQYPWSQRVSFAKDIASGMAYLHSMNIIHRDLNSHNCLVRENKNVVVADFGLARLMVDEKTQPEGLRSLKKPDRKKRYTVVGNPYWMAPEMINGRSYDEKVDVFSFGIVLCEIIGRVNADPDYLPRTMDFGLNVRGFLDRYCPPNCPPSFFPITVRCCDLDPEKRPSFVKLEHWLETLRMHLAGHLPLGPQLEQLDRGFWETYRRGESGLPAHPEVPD
Experiment summary: KINOMEscan competition binding
Conditions: compound 10.0 µM
# Lookup of reported kinase still bound, per cent of control keyed by entry
Reply numerically in %, unit not repeated.

CCN1CCN(Cc2ccc(Nc3ncc4c(n3)N(C)c3ccccc3C(=O)N4C)cc2C(F)(F)F)CC1: 52
Cc1ccc(NC(=O)c2cccc(C(C)(C)C#N)c2)cc1Nc1ccc2ncn(C)c(=O)c2c1: 100
Cn1c(=O)n(-c2ccc(C(C)(C)C#N)cc2)c2c3cc(-c4cnc5ccccc5c4)ccc3ncc21: 100
Cc1ccc(C(=O)Nc2cccc(C(F)(F)F)c2)cc1Nc1cncc(C(N)=O)c1: 100

Please tell me: kinase still bound, per cent of control of Cc1ccc2nc(NCCN)c3ncc(C)n3c2c1 , system UniProt:P53667? 100

---

# Lookup of reported kinase still bound, per cent of control keyed by entry
System tested: SLK (human) (UniProt Q9H2G2)
Sequence (Q9H2G2 whole entry, looked up): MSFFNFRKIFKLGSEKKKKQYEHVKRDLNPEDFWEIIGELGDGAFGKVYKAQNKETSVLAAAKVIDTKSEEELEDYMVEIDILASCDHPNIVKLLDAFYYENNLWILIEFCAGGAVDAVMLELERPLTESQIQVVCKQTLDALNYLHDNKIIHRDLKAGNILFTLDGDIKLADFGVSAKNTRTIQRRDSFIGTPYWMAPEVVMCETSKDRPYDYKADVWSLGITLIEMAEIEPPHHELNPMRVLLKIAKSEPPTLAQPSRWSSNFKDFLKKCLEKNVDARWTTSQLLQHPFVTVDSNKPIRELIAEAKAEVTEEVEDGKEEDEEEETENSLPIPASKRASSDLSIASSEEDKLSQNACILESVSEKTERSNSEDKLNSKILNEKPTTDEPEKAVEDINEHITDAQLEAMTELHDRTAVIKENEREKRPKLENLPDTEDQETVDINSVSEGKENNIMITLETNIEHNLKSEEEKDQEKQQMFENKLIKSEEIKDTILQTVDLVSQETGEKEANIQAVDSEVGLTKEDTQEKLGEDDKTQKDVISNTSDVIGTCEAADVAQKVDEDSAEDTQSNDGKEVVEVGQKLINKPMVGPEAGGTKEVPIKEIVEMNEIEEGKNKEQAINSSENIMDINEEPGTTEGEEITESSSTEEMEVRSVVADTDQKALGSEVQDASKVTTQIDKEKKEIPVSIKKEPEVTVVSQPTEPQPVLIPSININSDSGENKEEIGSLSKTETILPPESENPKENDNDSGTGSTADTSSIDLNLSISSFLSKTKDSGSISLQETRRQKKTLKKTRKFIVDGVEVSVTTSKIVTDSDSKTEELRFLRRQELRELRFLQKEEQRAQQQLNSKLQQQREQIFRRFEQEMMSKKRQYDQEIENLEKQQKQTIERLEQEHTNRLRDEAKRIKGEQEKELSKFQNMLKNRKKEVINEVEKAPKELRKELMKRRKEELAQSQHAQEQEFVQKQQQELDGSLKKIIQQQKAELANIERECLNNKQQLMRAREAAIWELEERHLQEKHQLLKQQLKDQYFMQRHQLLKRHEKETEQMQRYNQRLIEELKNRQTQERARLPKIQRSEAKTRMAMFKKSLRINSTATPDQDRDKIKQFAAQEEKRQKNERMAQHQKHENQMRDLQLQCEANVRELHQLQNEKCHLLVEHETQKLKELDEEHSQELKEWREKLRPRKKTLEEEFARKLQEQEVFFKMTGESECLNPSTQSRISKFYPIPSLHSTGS
Experiment summary: KINOMEscan competition binding
Conditions: compound 10.0 µM
Reply numerically in %, unit not repeated.

Examples with answers:
Cc1cc([C@@H](C)Nc2ccccc2C(=O)O)c2nc(N3CCOCC3)cc(=O)n2c1: 100
CCOc1cc2ncc(C#N)c(Nc3ccc(OCc4ccccn4)c(Cl)c3)c2cc1NC(=O)/C=C/CN(C)C: 1.4
C=CC(=O)Nc1cccc(Nc2nc(N[C@H]3CC[C@H](N(C)C)CC3)nc3c2ncn3C(C)C)c1: 26
CC[C@@H]1C(=O)N(C)c2cnc(Nc3ccc(C(=O)NC4CCN(C)CC4)cc3OC)nc2N1C1CCCC1: 3

Any idea what its kinase still bound, per cent of control is? The molecule is C[C@@H](Oc1cc(-n2cnc3ccc(CN4CCN(C)CC4)cc32)sc1C(N)=O)c1ccccc1C(F)(F)F 0.25

Any idea what its kinase still bound, per cent of control is? The molecule is O=C(NC1CC1)c1cccc(-c2ccc3c(NC(=O)C4CC4)n[nH]c3c2)c1 100

Any idea what its kinase still bound, per cent of control is? The molecule is Cc1ccc(C(=O)Nc2cccc(C(F)(F)F)c2)cc1Nc1cncc(C(N)=O)c1 100

Any idea what its kinase still bound, per cent of control is? The molecule is O=C(NOC[C@H](O)CO)c1ccc(F)c(F)c1Nc1ccc(I)cc1F 93

Any idea what its kinase still bound, per cent of control is? The molecule is O=C1Nc2ccc(I)cc2/C1=C/c1cc(Br)c(O)c(Br)c1 100

Any idea what its kinase still bound, per cent of control is? The molecule is OCCCNc1cc(-c2ccnc(Nc3cccc(Cl)c3)n2)ccn1 100

Any idea what its kinase still bound, per cent of control is? The molecule is COc1cc(N2CCN(C)CC2)ccc1Nc1nc(N)c(C(=O)c2c(Cl)cccc2Cl)s1 1.6

---

System tested: STK39 (human) (UniProt Q9UEW8)
Experiment summary: KINOMEscan competition binding
Conditions: compound 10.0 µM
# Lookup of reported kinase still bound, per cent of control keyed by entry
Reply numerically in %, unit not repeated.

Examples with answers:
Cn1c(=O)n(-c2ccc(C(C)(C)C#N)cc2)c2c3cc(-c4cnc5ccccc5c4)ccc3ncc21: 100
O=C1Nc2ccc(I)cc2/C1=C/c1cc(Br)c(O)c(Br)c1: 100
C=CC(=O)Nc1cccc(Nc2nc(N[C@H]3CC[C@H](N(C)C)CC3)nc3c2ncn3C(C)C)c1: 51
COc1cc(C(=O)NC2CCN(C)CC2)ccc1Nc1ncc2c(n1)N(C1CCCC1)CCC(=O)N2C(C)C: 100
CCOc1cc2ncc(C#N)c(Nc3ccc(OCc4ccccn4)c(Cl)c3)c2cc1NC(=O)/C=C/CN(C)C: 84
CCC(=O)N1CCN(c2ccc(-n3c(=O)ccc4cnc5ccc(-c6cnc7ccccc7c6)cc5c43)cc2C(F)(F)F)CC1: 100

Any idea what its kinase still bound, per cent of control is? The compound is OCCCNc1cc(-c2ccnc(Nc3cccc(Cl)c3)n2)ccn1 100

---

System tested: SRMS (human) (UniProt Q9H3Y6)
Sequence (Q9H3Y6 whole entry, looked up): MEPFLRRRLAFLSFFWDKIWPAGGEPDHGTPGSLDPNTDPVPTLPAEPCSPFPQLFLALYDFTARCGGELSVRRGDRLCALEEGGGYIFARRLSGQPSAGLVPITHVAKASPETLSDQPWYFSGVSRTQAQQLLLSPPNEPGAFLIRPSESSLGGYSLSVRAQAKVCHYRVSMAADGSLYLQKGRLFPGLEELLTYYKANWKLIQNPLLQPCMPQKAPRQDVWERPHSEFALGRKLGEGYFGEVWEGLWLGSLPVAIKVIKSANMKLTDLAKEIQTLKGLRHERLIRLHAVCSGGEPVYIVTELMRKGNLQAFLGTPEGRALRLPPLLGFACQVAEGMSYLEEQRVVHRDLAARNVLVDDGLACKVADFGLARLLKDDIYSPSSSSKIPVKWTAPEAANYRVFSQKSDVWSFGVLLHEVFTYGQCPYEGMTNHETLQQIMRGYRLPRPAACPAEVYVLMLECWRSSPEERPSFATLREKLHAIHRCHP
Experiment summary: KINOMEscan competition binding
Conditions: compound 10.0 µM
Quantity kind: kinase still bound, per cent of control (%)
Reply numerically in %, unit not repeated.

Examples with answers:
Cn1c(=O)n(-c2ccc(C(C)(C)C#N)cc2)c2c3cc(-c4cnc5ccccc5c4)ccc3ncc21: 100
Cc1cc([C@@H](C)Nc2ccccc2C(=O)O)c2nc(N3CCOCC3)cc(=O)n2c1: 63

Please tell me: kinase still bound, per cent of control of OCCCNc1cc(-c2ccnc(Nc3cccc(Cl)c3)n2)ccn1 , system SRMS (human) (UniProt Q9H3Y6)? 100

Please tell me: kinase still bound, per cent of control of CN(C)C/C=C/C(=O)Nc1cccc(Nc2ncc3c(n2)N(C)c2ccccc2C(=O)N3C)c1 , system SRMS (human) (UniProt Q9H3Y6)? 57

Please tell me: kinase still bound, per cent of control of N#Cc1c(NC(=O)c2cccc3ccccc23)sc2c1CCCC2 , system SRMS (human) (UniProt Q9H3Y6)? 84

Please tell me: kinase still bound, per cent of control of Cc1ccc(NC(=O)c2cccc(C(C)(C)C#N)c2)cc1Nc1ccc2ncn(C)c(=O)c2c1 , system SRMS (human) (UniProt Q9H3Y6)? 7.4

Please tell me: kinase still bound, per cent of control of CC[C@@H]1C(=O)N(C)c2cnc(Nc3ccc(C(=O)NC4CCN(C)CC4)cc3OC)nc2N1C1CCCC1 , system SRMS (human) (UniProt Q9H3Y6)? 100

Please tell me: kinase still bound, per cent of control of CCOc1cc2ncc(C#N)c(Nc3ccc(OCc4ccccn4)c(Cl)c3)c2cc1NC(=O)/C=C/CN(C)C , system SRMS (human) (UniProt Q9H3Y6)? 91

Please tell me: kinase still bound, per cent of control of COc1cc(C(=O)NC2CCN(C)CC2)ccc1Nc1ncc2c(n1)N(C1CCCC1)CCC(=O)N2C(C)C , system SRMS (human) (UniProt Q9H3Y6)? 100

Data origin: the kinase profiling compilation of Christmann-Franck et al. (2016)
